Hello, the source for this data is patent US20250066745A1, in case you need it.

- procedure details: Luminescence activity assay of purified Gaussia luciferase mutants on coelenterazine derivative ZS2
- Assay type: biochemical
- Set-up: key: ratio of mutant luminescence intensity to wild-type Gaussia luciferase
- test parameters: Substrate ZS2 (Table 16)
Listing of recorded Activity of mutant relative to wild-type Gaussia luciferase without the signal peptide by entry.
Just the number, please.

F26I A30D A32V S33G A36D T37K L40V: Gaussia luciferase mutant (protein, SIGNAL (1)..(17), Gaussia luciferase mutant) MGVKVLFALICIAVAEAKPTENNEDINIVDVVGNFDKTDVDADRGKLPGKKLPLEVLKEMEANARKAGCTRGCLICLSHIKCTPKMKKFIPGRCHTYEGDKESAQGGIGEAIVDIPEIPGFKDLEPMEQFIAQVDLCVDCTTGCLKGLANVQCSDLLKKWLPQRCATFASKIQGQVDKIKGAGGD = 2.392

Next item in the queue.
*Q* Give Activity of mutant relative to wild-type Gaussia luciferase without the signal peptide for F26L N27D V29P A30G V31I A32G S33A A36T T37C L40E I112T: Gaussia luciferase mutant (protein, SIGNAL (1)..(17), Gaussia luciferase mutant) MGVKVLFALICIAVAEAKPTENNEDLDIPGIGANFTCTDEDADRGKLPGKKLPLEVLKEMEANARKAGCTRGCLICLSHIKCTPKMKKFIPGRCHTYEGDKESAQGGIGEATVDIPEIPGFKDLEPMEQFIAQVDLCVDCTTGCLKGLANVQCSDLLKKWLPQRCATFASKIQGQVDKIKGAGGD
*A* 0.395
